Hey, just so you know, these numbers are from patent US11986532B2.

tested-system: BCL6 (Homo sapiens, UniProt P41182)
Construct: endogenous in cells; host or cells: T47D breast cancer epithelial cells
assay: Immunofluorescence protocol for high content imaging of BCL6 (degradation) in T47D cells, 3 days compound treatment
Assay type: cell-based
condition: T47D cells, 3 days compound treatment, read-out: Mean DC50 (nM)* category
Entries and their measured DC50 follow.

compound: CNC(=O)COc1cc2cc(Nc3nc(N4CCN(CC5CCN(c6cc7c(cc6OC)C(=O)N(C6CCC(=O)NC6=O)C7)CC5)CC4)ncc3Cl)ccc2n(C(C)C)c1=O (centres unmarked)
test-value: < 10 nM

Task: I am curious: what DC50 value has been reported for CNC(=O)COc1cc2cc(Nc3nc(N4CCN(C[C@H]5C[C@H](N6CCC(c7cccc8c7C(=O)N(C7CCC(=O)NC7=O)C8=O)CC6)C5)CC4)ncc3Cl)ccc2n(C(C)C)c1=O (some centres unmarked) ?
Output: 50 to 100 nM

Task: Endpoint output: DC50 of CNC(=O)COc1cc2cc(Nc3nc(N4CCN(CC5CCN(c6cc(F)cc7c6CN(C6CCC(=O)NC6=O)C7=O)CC5)CC4)ncc3Cl)ccc2n(C(C)C)c1=O (centres unmarked) . Value?
Output: < 10 nM

Task: Quick check: DC50 of CNC(=O)COc1cc2cc(Nc3nc(N4CCC(C(C)(C)N5CCC6(CC5)CN(c5ccc7c(c5)CN(C5CCC(=O)NC5=O)C7=O)C6)CC4)ncc3Cl)ccc2n(C(C)C)c1=O (centres unmarked) ?
Output: < 10 nM

Task: Entry under review: CNC(=O)COc1cc2cc(Nc3nc(N4CCC5(CC4)CC(C(C)(C)N4CCN(c6cccc7c6CN(C6CCC(=O)NC6=O)C7=O)CC4)C5)ncc3Cl)ccc2n(C(C)C)c1=O (centres unmarked) . Reported DC50?
Output: < 10 nM

Task: Any idea what its DC50 is? The compound is CNC(=O)COc1cc2cc(Nc3nc(N4CCN(C[C@H]5C[C@H](N6CCC(c7ccc8c(c7)C(=O)N(C7CCC(=O)NC7=O)C8=O)CC6)C5)CC4)ncc3Cl)ccc2n(C(C)C)c1=O (some centres unmarked)
Output: 50 to 100 nM

Task: Need DC50 of CNC(=O)COc1cc2cc(Nc3nc(N4CCC(OC5CN([C@H]6CC[C@H](c7ccc8c(c7Cl)CN(C7CCC(=O)NC7=O)C8=O)CC6)C5)CC4)ncc3Cl)ccc2n(C(C)C)c1=O (some centres unmarked) , thanks.
Output: < 10 nM

Task: Fill blank: measured DC50 of the compound CNC(=O)COc1cc2c(F)c(Nc3nc(N4CCC(CN5CCC6(CC5)CN(c5ccc7c(c5)CN(C5CCC(=O)NC5=O)C7=O)C6)CC4)ncc3Cl)ccc2n(C(C)C)c1=O (centres unmarked) is ____.
Output: < 10 nM

Task: Query (compound): CNC(=O)COc1cc2cc(Nc3nc(N4CCC(O[C@H]5C[C@H](N6CCC(c7cc8c(c(OC)c7)C(=O)N(C7CCC(=O)NC7=O)C8)CC6)C5)CC4)ncc3Cl)ccc2n(C(C)C)c1=O (some centres unmarked) ; field requested: DC50
Output: < 10 nM

Task: // returns reported DC50 for input CNC(=O)COc1cc2cc(Nc3nc(N4CCC(CN5CCC6(CN(c7ccc8c(c7)C(=O)N(C7CCC(=O)NC7=O)C8=O)C6)C(F)(F)C5)CC4)ncc3Cl)ccc2n(C)c1=O (centres unmarked)
Output: < 10 nM
